test-system: androgen receptor (rat ventral prostate cytosol) (Rattus norvegicus, UniProt P15207)
Construct: from tissue; host or cells: ventral prostate cytosol of castrated male Sprague Dawley or Wistar rats
Sequence (P15207 whole entry S389L): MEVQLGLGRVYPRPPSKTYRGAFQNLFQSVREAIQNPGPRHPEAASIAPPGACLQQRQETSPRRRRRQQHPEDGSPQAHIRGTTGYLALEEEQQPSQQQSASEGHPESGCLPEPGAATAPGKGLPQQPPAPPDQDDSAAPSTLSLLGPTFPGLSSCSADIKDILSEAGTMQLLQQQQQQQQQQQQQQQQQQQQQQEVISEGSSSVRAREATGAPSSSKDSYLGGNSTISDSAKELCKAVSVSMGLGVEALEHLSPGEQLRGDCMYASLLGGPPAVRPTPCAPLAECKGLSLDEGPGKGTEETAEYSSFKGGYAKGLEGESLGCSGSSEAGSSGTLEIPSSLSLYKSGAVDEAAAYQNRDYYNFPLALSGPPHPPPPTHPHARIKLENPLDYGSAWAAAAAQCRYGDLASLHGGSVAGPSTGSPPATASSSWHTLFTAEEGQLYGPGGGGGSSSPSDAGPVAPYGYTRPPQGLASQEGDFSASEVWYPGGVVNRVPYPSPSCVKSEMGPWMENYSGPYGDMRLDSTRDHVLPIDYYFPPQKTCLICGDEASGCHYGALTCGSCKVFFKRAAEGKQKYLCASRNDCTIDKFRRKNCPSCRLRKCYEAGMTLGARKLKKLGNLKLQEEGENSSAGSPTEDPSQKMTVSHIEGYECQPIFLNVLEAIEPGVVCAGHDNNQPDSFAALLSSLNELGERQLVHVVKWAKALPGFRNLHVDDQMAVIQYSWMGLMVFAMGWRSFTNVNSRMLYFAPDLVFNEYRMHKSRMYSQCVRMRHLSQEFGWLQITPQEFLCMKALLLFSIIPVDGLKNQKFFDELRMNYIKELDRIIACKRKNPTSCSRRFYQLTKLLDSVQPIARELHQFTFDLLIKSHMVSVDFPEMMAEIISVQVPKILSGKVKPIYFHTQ
protocol: Androgen Receptor Binding Using Rat Ventral Prostate Cytosol
assay-context: Concentration 1000 nM; read-out: % Inhibition, Androgen Receptor Binding (Rat Cytosol)
Description: The assay was run on a 96 well plate with each well filled with a total reaction volume 150 μL, of a solution containing 5 pmol androgen receptor LBD (Panvera) or 30 μL of freshly prepared rat cytosol, 0.5 nM [^3H] […] On day two, to each well was then added 20 μL human γ-globulin (ICN 823102), prepared at 25 mg/ml in TE pH 8.0, and 55 μL 40% polyethylene glycol 8000 (J T Baker U222-08), prepared in TE pH 8.0. […] The plate wells were then counted on a TopCount (Packard). […]
result-type: inhibition at 1 µM (%)
Response body: numeric value in %, unit text excluded.

# annotated cases, reported inhibition at 1 µM shown
# compound, inhibition at 1 µM / %
measured = [
    ("CC(O)(COC(=O)c1ccc(Cl)cc1)c1cc2cc(C#N)c(C(F)(F)F)cc2[nH]1 (stereo not shown) [Compound 76]", -30.5),
    ("CC(O)(CSc1ccccc1)c1cc2nc(C(F)(F)F)ccc2[nH]1 (racemic) [Compound 2]", 2.5),
    ("CC(C)(C)c1ccc(C(=O)OCC(C)(O)c2cc3cc([N+](=O)[O-])c(C(F)(F)F)cc3[nH]2)cc1 (stereo not shown) [Compound 80]", -24.9),
    ("Cc1ccc(C(=O)OCC(C)(O)c2cc3cc([N+](=O)[O-])c(C(F)(F)F)cc3[nH]2)cc1 (stereo not shown) [Compound 69]", 31),
]

Query: Recorded inhibition at 1 µM for CC(O)(CSc1ccccc1)c1cc2ccccc2n1S(C)(=O)=O (stereo not shown) [Compound 90] , please?
Response: -2.5

Query: Another compound to look at: CC(O)(CCl)c1cc2nc(C(F)(F)F)ccc2n1S(C)(=O)=O (stereo not shown) [Compound 4]
Response: 10.8

Query: Another compound to look at: CC(O)(CSc1ccc(F)cc1)c1cc2ccccc2n1S(C)(=O)=O (stereo not shown) [Compound 107]
Response: 1.5

Query: Another compound to look at: CC(O)(CSc1ccc(F)cc1)c1cc2cc(Cl)ccc2n1S(C)(=O)=O (stereo not shown) [Compound 99]
Response: 8.5

Query: Another compound to look at: Cc1ccc(CN2CCC(O)(c3cc4cc([N+](=O)[O-])c(C(F)(F)F)cc4[nH]3)CC2)cc1 [Compound 42]
Response: 23

Query: Another compound to look at: CC(O)(CS(=O)(=O)c1ccc(F)cc1)c1cc2cc(C#N)c(C(F)(F)F)cc2[nH]1 (stereo not shown) [Compound 110]
Response: 58.5

Data provenance is patent US7282507B2.
